biological target: C-C chemokine receptor type 2 (Homo sapiens); experiment: Displacement of 125I-hMCP1 from CCR2 expressed in human peripheral blood monocytes after 60 mins; assay type: cell-based
Sequence (P41597 whole entry): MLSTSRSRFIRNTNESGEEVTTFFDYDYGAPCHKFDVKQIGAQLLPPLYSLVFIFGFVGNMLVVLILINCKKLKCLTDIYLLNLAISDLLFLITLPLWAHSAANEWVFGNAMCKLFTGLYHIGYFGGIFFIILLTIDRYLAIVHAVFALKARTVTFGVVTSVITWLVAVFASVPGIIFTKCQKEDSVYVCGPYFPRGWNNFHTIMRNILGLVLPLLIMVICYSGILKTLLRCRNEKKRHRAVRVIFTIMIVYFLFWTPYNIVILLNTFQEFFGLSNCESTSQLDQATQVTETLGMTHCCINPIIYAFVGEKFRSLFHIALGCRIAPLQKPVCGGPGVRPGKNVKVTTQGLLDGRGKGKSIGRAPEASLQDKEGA
pIC50: −log10 of the molar value.
Rule: pIC50 of 7 or more gives Met; anything lower gives Not met.

Dear colleague, could you confirm whether CCN(CC)CCCCNC(=O)CCCc1cc(-c2cc(Cl)cc(Cl)c2)nn1-c1ccc2ccccc2c1 has pIC50 at or above 7?
Not met

Dear colleague, could you confirm whether O=C(CCCc1cc(-c2cc(Cl)cc(Cl)c2)nn1-c1ccc2ccccc2c1)NCCCc1ccc2c(n1)NCCC2 has pIC50 at or above 7?
Not met

Dear colleague, could you confirm whether CCN(CC)CCCC(C)NC(=O)CCCc1cc(-c2cccc(Cl)c2)nn1-c1ccc2ccccc2c1 (configuration not stated) has pIC50 at or above 7?
Not met

Dear colleague, could you confirm whether O=C(CCCc1cc(-c2cc(Cl)cc(Cl)c2)nn1-c1ccc2ccccc2c1)NCCCc1ccncc1 has pIC50 at or above 7?
Not met

Dear colleague, could you confirm whether CCCC(CCCN(CC)CC)NC(=O)CCOc1cc(-c2cc(Cl)cc(Cl)c2)nn1-c1ccc2ccccc2c1 (configuration not stated) has pIC50 at or above 7?
Met

Dear colleague, could you confirm whether CN(C)CCCCNC(=O)CCCc1cc(-c2cc(Cl)cc(Cl)c2)nn1-c1ccc2ccccc2c1 has pIC50 at or above 7?
Not met

Dear colleague, could you confirm whether COC(=O)[C@H](Cc1c[nH]cn1)NC(=O)CCCc1cc(-c2cc(Cl)cc(Cl)c2)nn1-c1ccc2ccccc2c1 has pIC50 at or above 7?
Not met

Dear colleague, could you confirm whether COC(=O)[C@H](CCCNC(=N)N)NC(=O)CCNc1cc(-c2cc(Cl)cc(Cl)c2)nn1-c1ccc2ccccc2c1 has pIC50 at or above 7?
Met

Dear colleague, could you confirm whether CCN(CC)CCCC(C)NC(=O)CCCc1cc(-c2cc(C(F)(F)F)cc(C(F)(F)F)c2)nn1-c1ccc2ccccc2c1 (configuration not stated) has pIC50 at or above 7?
Not met

Dear colleague, could you confirm whether COC(=O)[C@H](CCCNC(=N)N)NC(=O)CCCOc1cc(-c2cc(Cl)cc(Cl)c2)nn1-c1ccc2ccccc2c1 has pIC50 at or above 7?
Not met

Dear colleague, could you confirm whether CCN(CC)CCCC(C)NC(=O)CCNc1cc(-c2cc(Cl)cc(Cl)c2)nn1-c1ccc2ccccc2c1 (configuration not stated) has pIC50 at or above 7?
Met

Dear colleague, could you confirm whether CCN(CC)CCCC(C)NC(=O)CCCc1cc(-c2cc(Cl)cc(Cl)c2)nn1-c1cc(C(F)(F)F)cc(C(F)(F)F)c1 (configuration not stated) has pIC50 at or above 7?
Not met

Dear colleague, could you confirm whether CCN(CC)CCCC(C)NC(=O)CCCc1cc(-c2ccc(Cl)cc2)nn1-c1ccc2ccccc2c1 (configuration not stated) has pIC50 at or above 7?
Not met

Dear colleague, could you confirm whether CCC(CCCN(CC)CC)NC(=O)CCOc1cc(-c2cc(Cl)cc(Cl)c2)nn1-c1ccc2ccccc2c1 (configuration not stated) has pIC50 at or above 7?
Met
